target: hCG (whole human chorionic gonadotropin) (Homo sapiens, UniProt P0DN86); test: microscale thermophoresis
Observable: Kd (µM)
Give bare numbers, in µM.

The observed Kd for CO[C@@]1(NC(=O)C2SC(=C(C(N)=O)C(=O)O)S2)C(=O)N2C(C(=O)O)=C(CSc3nnnn3C)CS[C@@H]21 (stereo partly shown) when tested with hCG (whole human chorionic gonadotropin) (Homo sapiens, UniProt P0DN86) stands at 4.6
